Provenance of the data: paper PMC8210293

# Target system: recombinant human UGT1A3 (Homo sapiens, UniProt P35503)
# Sequence (P35503 29-534): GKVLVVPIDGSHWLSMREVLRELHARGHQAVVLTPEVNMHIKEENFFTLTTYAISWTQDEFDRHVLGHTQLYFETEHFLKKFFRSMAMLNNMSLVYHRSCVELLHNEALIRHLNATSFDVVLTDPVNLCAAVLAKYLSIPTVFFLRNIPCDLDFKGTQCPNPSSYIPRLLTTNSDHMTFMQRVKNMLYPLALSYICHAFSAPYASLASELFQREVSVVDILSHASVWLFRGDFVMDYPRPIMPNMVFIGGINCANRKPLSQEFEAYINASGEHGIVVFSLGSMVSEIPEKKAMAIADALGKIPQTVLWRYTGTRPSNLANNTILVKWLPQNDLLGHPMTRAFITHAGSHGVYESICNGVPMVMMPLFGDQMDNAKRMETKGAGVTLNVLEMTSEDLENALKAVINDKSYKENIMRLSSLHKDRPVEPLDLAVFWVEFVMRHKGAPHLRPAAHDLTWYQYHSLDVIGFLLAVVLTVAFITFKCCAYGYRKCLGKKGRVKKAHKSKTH
# Assay comment: Inhibition of recombinant UGT1A3-catalyzed 4-MU glucuronidation
# Format: in vitro ADME
# Test settings: Inhibitory potential class based on Ki, UGT1A3
Reported endpoint: Ki

Lab note: measured Ki of O=c1c(O)c(-c2ccc(O)c(O)c2)oc2cc(O)cc(O)c12 [Quercetin, 3,3',4',5,7-pentahydroxyflavone] was 1 to 10 µM
